Provenance of the data: PubChem BioAssay (NCI)

Tested on: MALME-3M melanoma
Measurement protocol: NCI-60 one-dose screen, 48 h
Experimental conditions: 10 µM unless noted
This is part of a sample that, as a whole, favours compounds with a hit. Of some 83,000 tested, about 20% had one in any assay. Active and inactive are the calls of the source. Rule for the calls: active = growth percent below 10; inactive = the rest.
Outcome codes: 1 (yes) (active), 0 (no) (inactive)

[
  {
    "Compound": "O=C(CCCCCCCCC(=O)N/N=C\\c1ccccc1O)N/N=C\\c1ccccc1O",
    "Assigned class": "0 (no)"
  },
  {
    "Compound": "OCCN1CCN(c2cc(-c3cccc(OC(F)(F)F)c3)nc3ccc(N4CCCC4)cc23)CC1",
    "Assigned class": "0 (no)"
  },
  {
    "Compound": "O=C(CN1C(=O)S/C(=C\\C(Cl)=C\\c2ccccc2)C1=O)NC1C=CS(=O)(=O)C1 (centres undefined)",
    "Assigned class": "1 (yes)"
  },
  {
    "Compound": "CON1CCC[C@]2(C)[C@H]3CC[C@@H]4[C@H]5[C@@H](O)C(C)(C)CC[C@]5(CO)CC[C@@]4(C)[C@]3(C)CC[C@H]2C1(C)C",
    "Assigned class": "0 (no)"
  },
  {
    "Compound": "Cc1ccc(-c2nc3nc(-c4ccccc4)nc(N4CCN(S(=O)(=O)c5ccccc5)CC4)c3o2)cc1",
    "Assigned class": "0 (no)"
  },
  {
    "Compound": "CCOC(=O)c1nnn(Cc2cc(=O)oc3c2ccc2ccccc23)c1C",
    "Assigned class": "0 (no)"
  },
  {
    "Compound": "COCCn1cc(-c2nc(-c3cn(CCOC)c4ncccc34)cs2)c2ccccc21",
    "Assigned class": "0 (no)"
  },
  {
    "Compound": "CC(=O)OC[C@]12CCC(C)(C)C=C1[C@H]1CC[C@@H]3[C@@]4(C)CCCNC(C)(C)[C@@H]4CC[C@@]3(C)[C@]1(C)CC2",
    "Assigned class": "0 (no)"
  },
  {
    "Compound": "COc1ccc(-c2cc(-c3cccnc3)nc3sc4c(Cl)nnnc4c23)cc1OC",
    "Assigned class": "0 (no)"
  },
  {
    "Compound": "O=C(NCc1ccc(Cn2c(=O)sn(-c3ccc(Cl)cc3)c2=O)cc1)OCc1ccc2c(Cl)cc(Cl)c(O)c2n1",
    "Assigned class": "0 (no)"
  },
  {
    "Compound": "Clc1ccc(CNc2ccc3nc(CCC4CCCCC4)[nH]c3c2)cc1",
    "Assigned class": "0 (no)"
  },
  {
    "Compound": "CCCCn1c(C(=O)c2c[nH]c3ccccc23)n[nH]c1=S",
    "Assigned class": "0 (no)"
  },
  {
    "Compound": "C=CCN1C=CC(=O)[C@H](O[Si](C)(C)C(C)(C)C)[C@@H]1/C=C/c1ccccc1",
    "Assigned class": "1 (yes)"
  },
  {
    "Compound": "Cc1ccc2nc3ccccc3c(NCc3ccc(Cl)cc3)c2c1",
    "Assigned class": "1 (yes)"
  },
  {
    "Compound": "Cc1ccc(-c2nc(C#N)c(S(=O)(=O)N(C)C)o2)cc1",
    "Assigned class": "0 (no)"
  },
  {
    "Compound": "COc1cc(/C=C2/C=C(c3ccc(C(C)(C)C)cc3)N(CCc3ccc(S(N)(=O)=O)cc3)C2=O)cc(OC)c1OC",
    "Assigned class": "0 (no)"
  },
  {
    "Compound": "Cc1n(Cc2ccc3ccccc3c2)c(Cl)c(Cl)[n+]1Cc1ccc2ccccc2c1",
    "Assigned class": "1 (yes)"
  },
  {
    "Compound": "CCN(CC)CCOc1ccc(/C(=C(\\Cl)c2ccccc2)c2ccccc2)cc1",
    "Assigned class": "1 (yes)"
  },
  {
    "Compound": "CCN1C(=O)/C(=c2\\sc3n(c2=O)C2C(NN=3)N(CC)C(=O)N2CC)c2ccccc21 (centres undefined)",
    "Assigned class": "0 (no)"
  }
]
